Biological target: T1, human epidermal growth factor receptor 2 (HER2) (human, UniProt P04626 23-1255)
T1 construct: whole, on cells; One entry for endogenous HER2 on tumor cell lines and for the fully human construct hu-HER2 on CHO-S cells; also called ErbB-2; hu-HER2
Assay: flow cytometry on AU565 cells (high HER2), PE-goat anti-human IgG, MFI; EC50 by non-linear regression (Example 12)
Binarize EC50 at 0.9 µg/mL; below is condition met, at or above is condition not met.

Illustrative cases are given below, each with its answer.
HER2 HuMab 153 (antibody, V domains shown, also called PC1014-153; TH1014-153) VH: QVQLVESGGGVVQPGRSLRLSCAASGFTFSDYVIHWVRQAPGKGLEWVTVISYDGSNKYYADSVKGRFTISRDNSKNTLYLQMNSLSAEDTAMYYCARGGITGTTGVFDYWGQGTLVTVSS VL: DIQMTQSPSSLSASVGDRVTITCRASQGISSWLAWYQQKPEKAPKSLIYDASSLQSGVPSRFSGSGYGTDFSLTISSLQPEDFAIYYCQQYKSYPITFGQGTRLEIK; condition met
HER2 HuMab 159 (antibody, V domains shown, also called PC1014-159) VH: EVQLVQSGAEVKKPGESLKISCKGSGYNFTSYWIGWVRQMPGKGLEWMGIIYPGDSDTRYSPSFQGQVTISADKSISTAYLQWSSLKASDTAMYYCARWGTYYDILTGYFNWFDPWGQGTLVTVSS VL: DIQMTQSPSSLSASVGDRVTITCRASQGISSWLAWYQQKPEKAPKSLIYAASSLQSGVPSRFSGSGSGTDFTLTISSLQPEDFATYYCQQYYIYPWTFGQGTKVEIK; condition not met

Then there is this binder:
**Query** EC50 under 0.9 µg/mL? Item: HER2 HuMab 129 (antibody, V domains shown, also called PC1014-129) VH: QVQLVESGGGVVQPGRSLRLSCAASGFTFSTFAIHWVRQAPGKGLEWVAVISYDGGHKFYADSVKGRFTISRDNSKNTLYLQMNSLRAEDTAMYYCARGLGVWGAFDYWGQGTLVTVSS VL: EIVLTQSPATLSLSPGERATLSCRASQSVSSYLAWYQQKPGQAPRLLIYDASNRATGIPARFSGSGSGTDFTLTISSLEPEDFAVYYCQQRSNWWTFGQGTKVEIK
**Result** condition met
